- assay_system: UniProt:P28776
- Sequence (P28776 whole entry, looked up): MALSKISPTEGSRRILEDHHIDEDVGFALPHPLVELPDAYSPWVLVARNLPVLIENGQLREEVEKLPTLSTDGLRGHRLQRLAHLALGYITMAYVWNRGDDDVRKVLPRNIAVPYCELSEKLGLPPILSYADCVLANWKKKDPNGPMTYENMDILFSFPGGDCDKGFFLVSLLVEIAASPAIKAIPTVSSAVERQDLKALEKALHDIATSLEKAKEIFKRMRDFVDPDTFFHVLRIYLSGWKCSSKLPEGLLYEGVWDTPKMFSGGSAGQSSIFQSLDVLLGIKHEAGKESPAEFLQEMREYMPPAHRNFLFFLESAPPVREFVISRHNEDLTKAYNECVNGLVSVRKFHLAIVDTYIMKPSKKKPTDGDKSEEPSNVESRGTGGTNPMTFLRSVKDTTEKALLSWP
- test_description: Inhibition of mouse IDO expressed in mouse P815B cells assessed as tryptophan degradation at 20 uM
- Format: cell-based
The source made the active and inactive calls. The rule behind the calls is not given here.
experimental_endpoint: inhibition

molecule	experimental_endpoint	observed_value
O=C(Cc1cccnc1)c1[nH]c2ccccc2c1Br	inhibition	inactive
O=C(Cc1cccnc1)c1cc2ccc(F)cc2[nH]1	inhibition	inactive
O=C(Cc1cccnc1)c1cc2cc(Br)ccc2[nH]1	inhibition	inactive
COc1cccc2[nH]c(C(=O)Cc3cccnc3)cc12	inhibition	inactive
O=C(Cc1cccnc1)c1cc2cc(-c3ccccc3)ccc2[nH]1	inhibition	inactive
COc1ccc2[nH]c(C(=O)Cc3cccnc3)cc2c1OCc1ccccc1	inhibition	inactive
O=C(Nc1cccnc1)c1cc2ccccc2[nH]1	inhibition	inactive
O=C(Cc1cccnc1)c1cc2cc(O)ccc2[nH]1	inhibition	inactive

Challenge: Specify reported inhibition for the molecule shown: OC(Cc1cccnc1)c1cc2ccccc2[nH]1 (stereo not drawn)
Response given: inactive

Challenge: Specify reported inhibition for the molecule shown: O=C(Cc1cccnc1)c1cc2c(F)cccc2[nH]1
Response given: 12%

Challenge: Specify reported inhibition for the molecule shown: O/N=C(/Cc1cccnc1)c1cc2ccccc2[nH]1
Response given: 25%

Challenge: Specify reported inhibition for the molecule shown: O=C(Cc1cccnc1)c1cc2cc(OC(F)(F)F)ccc2[nH]1
Response given: 12%

Challenge: Specify reported inhibition for the molecule shown: Cn1c(C(=O)Cc2cccnc2)cc2ccccc21
Response given: inactive
